Entries below carry reported pIC50 on UniProt P00533.
Sequence (P00533 whole entry): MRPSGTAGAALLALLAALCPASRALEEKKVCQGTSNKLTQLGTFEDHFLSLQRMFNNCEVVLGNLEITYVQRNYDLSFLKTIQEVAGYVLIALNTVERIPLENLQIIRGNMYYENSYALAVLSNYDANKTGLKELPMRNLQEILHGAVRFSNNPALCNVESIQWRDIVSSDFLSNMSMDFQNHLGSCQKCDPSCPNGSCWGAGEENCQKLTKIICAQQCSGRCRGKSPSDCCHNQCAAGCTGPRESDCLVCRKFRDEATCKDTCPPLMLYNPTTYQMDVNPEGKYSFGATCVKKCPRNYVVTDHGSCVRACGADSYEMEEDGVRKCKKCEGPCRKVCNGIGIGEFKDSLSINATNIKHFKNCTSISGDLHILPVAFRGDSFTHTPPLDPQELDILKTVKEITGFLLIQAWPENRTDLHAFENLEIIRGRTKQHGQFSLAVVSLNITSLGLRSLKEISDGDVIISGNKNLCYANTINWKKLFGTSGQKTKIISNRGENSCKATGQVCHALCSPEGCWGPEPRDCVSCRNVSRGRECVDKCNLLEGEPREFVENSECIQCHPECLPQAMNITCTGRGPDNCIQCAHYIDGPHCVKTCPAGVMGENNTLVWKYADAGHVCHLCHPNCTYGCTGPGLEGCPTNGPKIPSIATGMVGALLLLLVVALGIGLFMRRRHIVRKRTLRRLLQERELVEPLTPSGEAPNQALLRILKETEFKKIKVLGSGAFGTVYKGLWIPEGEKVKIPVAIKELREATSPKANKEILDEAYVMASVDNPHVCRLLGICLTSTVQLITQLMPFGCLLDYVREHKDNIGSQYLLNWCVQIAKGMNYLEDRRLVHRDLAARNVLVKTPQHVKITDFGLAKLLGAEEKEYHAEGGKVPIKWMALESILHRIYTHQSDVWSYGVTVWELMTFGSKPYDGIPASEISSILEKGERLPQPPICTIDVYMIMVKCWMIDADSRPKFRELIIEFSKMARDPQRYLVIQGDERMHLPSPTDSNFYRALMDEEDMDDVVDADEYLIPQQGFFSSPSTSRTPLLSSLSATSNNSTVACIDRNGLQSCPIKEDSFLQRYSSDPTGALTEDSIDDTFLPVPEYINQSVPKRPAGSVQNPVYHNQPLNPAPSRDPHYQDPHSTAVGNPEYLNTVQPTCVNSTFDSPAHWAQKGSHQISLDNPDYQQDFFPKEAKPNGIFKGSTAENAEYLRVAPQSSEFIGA
Please express pIC50 as -log10 of the molar concentration.

# input Test system UniProt P00533; read-out pIC50; what value for `CCOc1cc2ncnc(Nc3cccc(-c4ccco4)c3)c2cc1OCC` ?
# output 8.52

Query compound follows.
# input Test system UniProt P00533; read-out pIC50; what value for `CCOc1cc2ncnc(Nc3cccc(-c4cocn4)c3)c2cc1OCC` ?
# output 6.14

* * *

Experiment: Inhibition of human recombinant wild type fructose-1,6-bisphosphatase (F16BP)
IC50: recorded values
Return type: number; implicit unit nM.

Sample answers from the record:
# input Given the compound `CCOc1cc2ncnc(Nc3ccc(F)c(-c4csc(C)n4)c3)c2cc1OCC` , what is its reported IC50?
# output 610

# input Given the compound `CCOc1cc2ncnc(Nc3cc(-c4csc(C)n4)ccc3C)c2cc1OCC` , what is its reported IC50?
# output 1800

# input Given the compound `CCOc1cc2ncnc(Nc3cccc(-c4cc[nH]n4)c3)c2cc1OCC` , what is its reported IC50?
# output 730

# input Given the compound `CCOc1cc2ncnc(Nc3cccc(-c4cnc(C)o4)c3)c2cc1OCC` , what is its reported IC50?
# output 4000

# input Given the compound `CCOc1cc2c(Nc3cccc(-c4csc(C)n4)c3)ncnc2cc1OC(C)C` , what is its reported IC50?
# output 420

Query compound follows.
# input Given the compound `CCOc1cc2ncnc(Nc3cccc(-c4cccnc4)c3)c2cc1OCC` , what is its reported IC50?
# output 1400

* * *

Test: Inhibition of human recombinant wild type fructose-1,6-bisphosphatase (F16BP)
MEASUREMENT_KIND: IC50

Sample answers from the record:
# input Given the compound `CCOc1cc2c(Nc3cccc(-c4csc(C)n4)c3)ncnc2c(OCC)c1OCC` , what is its reported IC50?
# output > 10 µM

# input Given the compound `CCOc1cc2ncnc(Nc3cccc(-c4ccccc4)c3)c2cc1OCC` , what is its reported IC50?
# output > 10 µM

# input Given the compound `CCCc1nc(-c2cccc(Nc3ncnc4cc(OCC)c(OCC)cc34)c2)cs1` , what is its reported IC50?
# output > 10 µM

# input Given the compound `COc1cc2ncnc(Nc3cccc(-c4csc(C)n4)c3)c2cc1OC(C)C` , what is its reported IC50?
# output > 10 µM

# input Given the compound `CCOc1cc2nc(CS(C)(=O)=O)nc(Nc3cccc(Br)c3)c2cc1OCC` , what is its reported IC50?
# output > 10 µM

***
# input Given the compound `CCOc1cc2ncnc(Nc3cccc(C(=O)CBr)c3)c2cc1OCC` , what is its reported IC50?
# output > 10 µM

# input Given the compound `CCCCOc1cc2c(Nc3cccc(-c4csc(C)n4)c3)ncnc2cc1OC` , what is its reported IC50?
# output > 10 µM

* * *

pIC50: recorded values
Assay: Inhibition of human recombinant wild type fructose-1,6-bisphosphatase (F16BP)
pIC50: −log10 of the molar value.

Sample answers from the record:
# input Given the molecule `CCOc1cc2ncnc(Nc3cccc(-c4cocn4)c3)c2cc1OCC` , what is its reported pIC50?
# output 5.44

# input Given the molecule `CCOc1cc2ncnc(Nc3cccc(-c4cscn4)c3)c2cc1OCC` , what is its reported pIC50?
# output 6.41

# input Given the molecule `CCOc1cc2ncnc(Nc3cccc(-c4cccc(C)c4)c3)c2cc1OCC` , what is its reported pIC50?
# output < 5.00

***
# input Given the molecule `CCOc1cc2ncnc(Nc3ccc(F)c(-c4csc(C)n4)c3F)c2cc1OCC` , what is its reported pIC50?
# output < 5.00

# input Given the molecule `Cc1nc(-c2cccc(Nc3ncnc4cc5c(cc34)OCCO5)c2)cs1` , what is its reported pIC50?
# output < 5.00

# input Given the molecule `Cc1nc(-c2cccc(Nc3ncnc4ccccc34)c2)cs1` , what is its reported pIC50?
# output < 5.00
